conditions: 313.15 K; 100 kPa
endpoint name: viscosity (mPa·s)
Numbers only, in mPa·s.

[
  {
    "compound": "CCCCCC[n+]1ccn(C)c1.O=S(=O)([O-])C(F)(F)F",
    "viscosity / mPa·s": 74.03
  },
  {
    "compound": "Clc1cccc(Cl)c1",
    "viscosity / mPa·s": 0.849
  },
  {
    "compound": "CCCCCC[N+](CC)(CC)CC.O=S(=O)([N-]S(=O)(=O)C(F)(F)F)C(F)(F)F",
    "viscosity / mPa·s": 80.71
  }
]

Would you kindly look at the next entry?
Exercise: viscosity for "OCC(O)CO" ?
Solution: 217

---

conditions: 313.15 K; 101.33 kPa
Answer each item with its documented viscosity.
Numbers only, in mPa·s.

Batch request: viscosity per item, same order as input.
1. CCOC(C)=O
2. CS(=O)(=O)[O-].C[N+](C)(CCO)CCO
3. COCCOCC[n+]1ccn(CCC#N)c1.O=S(=O)([N-]S(=O)(=O)C(F)(F)F)C(F)(F)F
4. CCOc1ccccc1

Solution:
0.368
513.1
103.2
0.894

---

settings: 303.15 K; 100 kPa
endpoint name: viscosity (mPa·s)
Answers are plain numbers, in mPa·s.

# count of solved cases: 3
[
  {
    "compound": "OCC(O)CO",
    "measured": 542
  },
  {
    "compound": "CCCCCCCCCCCC(=O)OC",
    "measured": 2.491
  },
  {
    "compound": "CCCCCC[n+]1ccn(C)c1.O=S(=O)([O-])C(F)(F)F",
    "measured": 115.7
  }
]

Would you kindly look at the next entry?
Exercise: viscosity for "Clc1cccc(Cl)c1" ?
Solution: 0.945

---

details: 298.15 K; 100 kPa
endpoint name: viscosity (mPa·s)
One number for each entry, in mPa·s.

# count of solved cases: 3
[
  {
    "compound": "CCCCCC[n+]1ccn(C)c1.O=S(=O)([O-])C(F)(F)F",
    "viscosity / mPa·s": 150.8
  },
  {
    "compound": "Clc1cccc(Cl)c1",
    "viscosity / mPa·s": 1.017
  },
  {
    "compound": "CCCCCCCCCCCC(=O)OC",
    "viscosity / mPa·s": 2.778
  }
]

Would you kindly look at the next entry?
Exercise: viscosity for "OCC(O)CO" ?
Solution: 860
